Test system: HepG2-TP53BP1-CLTA
Assay: phenotypically active (imaging signature differs from DMSO and reproducible) at any of 0.3-9 uM (binary (1 = active, 0 = inactive)); higher = active
Settings: treatment time: 24 h
Counter-ions that a name gives are not always drawn.
One label from this list, please: Y for active, N for inactive

Previously resolved entries follow.
>>> group("CCCC(=O)O[C@]1(C(=O)COC(C)=O)CC[C@H]2[C@@H]3C[C@H](F)C4=CC(=O)C=C[C@]4(C)[C@@]3(F)[C@@H](O)C[C@@]21C [difluprednate]")
"N"
>>> group("COc1ccc(S(=O)(=O)Nc2cccnc2Nc2ccc(O)cc2)cc1")
"Y"

Test call for this molecule, please: `Cc1ccc2nc(NCCN)c3ncc(C)n3c2c1`
Y

Test call for this molecule, please: O=C(O)CCc1ccccc1 [Hydrocinnamic acid]
N

Test call for this molecule, please: CC1(C)CC(=O)C2=C(C1)NC(=S)NC2c1cccc(O)c1 (stereo not drawn) [Dimethylenastron]
Y

Test call for this molecule, please: CC(C)NCC(O)c1ccc(O)c(O)c1 (stereo not drawn) [Isoproterenol hydrochloride]
N

Test call for this molecule, please: CO/N=C/C1=CCCN(C)C1 [Milameline hydrochloride]
N

Test call for this molecule, please: Cc1c(OCC(F)(F)F)ccnc1CS(=O)c1nc2ccccc2[nH]1 (stereo not drawn) [lansoprazole]
N

Test call for this molecule, please: `CC(C)CNc1nc(-c2cccc3ncccc23)cn2c(-c3ccc(C(=O)NC4CC4)cc3)cnc12`
Y

Test call for this molecule, please: CC(C)(C)c1ccc(C(O)CCCN2CCC(C(O)(c3ccccc3)c3ccccc3)CC2)cc1 (stereo not drawn) [terfenadine]
N

Test call for this molecule, please: CN1CCC(=C2c3ccccc3CC(=O)c3sccc32)CC1 [ketotifen]
Y

Test call for this molecule, please: CO[C@H]1C=CO[C@@]2(C)Oc3c(C)c(O)c4c(O)c(c(/C=N/N5CCN(C)CC5)c(O)c4c3C2=O)NC(=O)C(C)=CC=C[C@H](C)[C@H](O)[C@@H](C)[C@@H](O)[C@@H](C)[C@H](OC(C)=O)[C@@H]1C [Rifampicin]
N

Just for reference, the supplement of paper PMC7411054 is where these values come from.
